Source: ChEMBL document CHEMBL1806394

- Tested on: Candida albicans
- PROCEDURE SUMMARY: Antifungal activity against Candida albicans Y0109 by micro-broth dilution method
- Assay type: functional
ASSAY ENDPOINT: MIC80 (µg/mL)
Enter your answer as a number in µg/mL; do not include the unit.

// known answers, use as guide
COMPOUND	UNIT TEXT	MIC80
O=C(Nc1ccc(-n2cnn(CC(O)(Cn3cncn3)c3ccc(F)cc3F)c2=O)cc1)c1ccc(F)cc1 (single isomer, unassigned)	µg/mL	1
O=C(/C=C/c1ccccc1[N+](=O)[O-])Nc1ccc(-n2cnn(CC(O)(Cn3cncn3)c3ccc(F)cc3F)c2=O)cc1 (single isomer, unassigned)	µg/mL	1

// below: MIC80 requested for another compound
Input: Given COc1ccc(/C=C/C(=O)Nc2ccc(-n3cnn(CC(O)(Cn4cncn4)c4ccc(F)cc4F)c3=O)cc2)cc1OC (single isomer, unassigned) , state its recorded MIC80.
Output: 1

----------
- Test system: Kluyveromyces marxianus
- PROCEDURE SUMMARY: Antifungal activity against Candida kefyr by micro-broth dilution method
- Format: functional
// MIC80 lookup, one value per entry

Use these answered entries as a reference point.
COMPOUND	TARGET	RESULT VALUE
O=C(/C=C/c1ccc(Br)cc1)Nc1ccc(-n2cnn(CC(O)(Cn3cncn3)c3ccc(F)cc3F)c2=O)cc1 (single isomer, unassigned)	Kluyveromyces marxianus	> 64 µg/mL
O=C(/C=C/c1ccc([N+](=O)[O-])cc1)Nc1ccc(-n2cnn(CC(O)(Cn3cncn3)c3ccc(F)cc3F)c2=O)cc1 (single isomer, unassigned)	Kluyveromyces marxianus	> 64 µg/mL

Input: Fill in the blank: the reported MIC80 of CC(C)(C)c1ccc(C(=O)Nc2ccc(-n3cnn(CC(O)(Cn4cncn4)c4ccc(F)cc4F)c3=O)cc2)cc1 (single isomer, unassigned) is ____.
Output: > 64 µg/mL

----------
- System: Cryptococcus neoformans
- PROCEDURE SUMMARY: Antifungal activity against Cryptococcus neoformans BLS108 by micro-broth dilution method
- Type: functional
ASSAY ENDPOINT: MIC80

MOLECULE	MIC80
O=C(/C=C/c1ccc(Cl)c(Cl)c1)Nc1ccc(-n2cnn(CC(O)(Cn3cncn3)c3ccc(F)cc3F)c2=O)cc1 (single isomer, unassigned)	> 64 µg/mL
O=C(Nc1ccc(-n2cnn(CC(O)(Cn3cncn3)c3ccc(F)cc3F)c2=O)cc1)c1cccc(Br)c1 (single isomer, unassigned)	> 64 µg/mL
O=C(Nc1ccc(-n2cnn(CC(O)(Cn3cncn3)c3ccc(F)cc3F)c2=O)cc1)c1ccc(OC(F)(F)F)cc1 (single isomer, unassigned)	> 64 µg/mL
O=C(/C=C/c1cccc(F)c1)Nc1ccc(-n2cnn(CC(O)(Cn3cncn3)c3ccc(F)cc3F)c2=O)cc1 (single isomer, unassigned)	> 64 µg/mL
O=C(/C=C/c1ccc(F)cc1)Nc1ccc(-n2cnn(CC(O)(Cn3cncn3)c3ccc(F)cc3F)c2=O)cc1 (single isomer, unassigned)	> 64 µg/mL
C[C@@H](c1ncncc1F)[C@](O)(Cn1cncn1)c1ccc(F)cc1F [VORICONAZOLE]	0.0039 µg/mL

Input: Give the measured MIC80 of Cc1ccc(/C=C/C(=O)Nc2ccc(-n3cnn(CC(O)(Cn4cncn4)c4ccc(F)cc4F)c3=O)cc2)cc1 (single isomer, unassigned) .
Output: > 64 µg/mL

Input: Fill in: MIC80 of O=C(Nc1ccc(-n2cnn(CC(O)(Cn3cncn3)c3ccc(F)cc3F)c2=O)cc1)c1ccc(Cl)cc1 (single isomer, unassigned) is ___
Output: 0.0625 µg/mL

Input: Look at this molecule and give its reported MIC80. O=C(Nc1ccc(-n2cnn(CC(O)(Cn3cncn3)c3ccc(F)cc3F)c2=O)cc1)c1ccccc1Br (single isomer, unassigned)
Output: 16 µg/mL

Input: // MIC80 lookup, key: O=C(Nc1ccc(-n2cnn(CC(O)(Cn3cncn3)c3ccc(F)cc3F)c2=O)cc1)c1ccc(Cl)cc1Cl (single isomer, unassigned)
Output: > 64 µg/mL

Input: Param item = CC(C)c1ccc(C(=O)Nc2ccc(-n3cnn(CC(O)(Cn4cncn4)c4ccc(F)cc4F)c3=O)cc2)cc1 (single isomer, unassigned) ; retrieve measured MIC80.
Output: > 64 µg/mL

Input: Data request, read-out MIC80, for COc1ccc(OC)c(/C=C/C(=O)Nc2ccc(-n3cnn(CC(O)(Cn4cncn4)c4ccc(F)cc4F)c3=O)cc2)c1 (single isomer, unassigned)
Output: > 64 µg/mL

Input: Report MIC80 for COc1ccc(/C=C/C(=O)Nc2ccc(-n3cnn(CC(O)(Cn4cncn4)c4ccc(F)cc4F)c3=O)cc2)cc1 (single isomer, unassigned) please.
Output: > 64 µg/mL

Input: Which MIC80 is listed for Cc1ccc(C(=O)Nc2ccc(-n3cnn(CC(O)(Cn4cncn4)c4ccc(F)cc4F)c3=O)cc2)cc1 (single isomer, unassigned) ?
Output: > 64 µg/mL
